biological target: cathepsin B (Homo sapiens); assay: Inhibition of cathepsin B, incubation method; type: biochemical; conditions: pH 6; second-order rate constant; NI = no inhibition; read-out: kobs/[I] cathepsin B
Would you mind telling me the reported log10 of kinact/KI of each entry?
All values: log10 kinact/KI [M⁻¹ s⁻¹].

Provide log10 of kinact/KI for all items below, preserving their order.
1. CCOC(=O)[C@@H]1O[C@H]1C(=O)N(CC(N)=O)NC(=O)[C@H](C)NC(=O)[C@H](C)NC(=O)OCc1ccccc1 (relative stereo) [Cbz-Ala-Ala-AAsn-trans-EP-COOEt]
2. CCOC(=O)[C@H]1O[C@@H]1C(=O)N(CCC(N)=O)NC(=O)[C@H](Cc1ccccc1)NC(=O)[C@H](CC(C)C)NC(=O)OCc1ccccc1 [Cbz-Leu-Phe-AGln-(2S, 3S)-EP-COOEt]
3. CCOC(=O)[C@@H]1O[C@H]1C(=O)N(NCc1ccccc1)C(=O)OCc1ccccc1 (relative stereo) [Cbz-APhe-trans-EP-COOEt]
4. CCOC(=O)[C@H]1O[C@@H]1C(=O)N(CC(N)=O)NC(=O)[C@H](C)NC(=O)[C@H](C)NC(=O)OCc1ccccc1 [Cbz-Ala-Ala-AAsn-(2S, 3S)-EP-COOEt]
5. CCOC(=O)[C@@H]1O[C@H]1C(=O)N(CCc1ccccc1)NC(=O)[C@H](CC(C)C)NC(C)=O (relative stereo) [Ac-Leu-AHph-trans-EP-COOEt]
6. CCOC(=O)[C@@H]1O[C@H]1C(=O)N(CCC(N)=O)NC(=O)[C@H](Cc1ccccc1)NC(=O)[C@H](CC(C)C)NC(=O)OCc1ccccc1 (relative stereo) [Cbz-Leu-Phe-AGln-trans-EP-COOEt]

Reply |
[0.10, 0.67, 0.26, 0.78, -0.23, 0.11]

Parameters: items (list). Returns: log10 of kinact/KI for each item.
1. CCOC(=O)[C@H]1O[C@@H]1C(=O)N(CC(C)C)NC(=O)[C@H](CC(C)C)NC(=O)[C@H](CC(C)C)NC(=O)OCc1ccccc1 [Cbz-Leu-Leu-ALeu-(2S, 3S)-EP-COOEt]
2. CC(C)C[C@H](NC(=O)OCc1ccccc1)C(=O)N[C@@H](CC(C)C)C(=O)NN(CC(C)C)C(=O)[C@H]1O[C@@H]1C(=O)O [Cbz-Leu-Leu-ALeu-(2S, 3S)-EP-COOH]
3. CCOC(=O)CN(NC(=O)[C@H](C)NC(=O)[C@H](C)NC(=O)OCc1ccccc1)C(=O)[C@@H]1O[C@H]1C(=O)OCC (relative stereo) [Cbz-Ala-Ala-NHN(CH2COOEt)-trans-EP-COOEt]

Reply |
-0.01
0.85
0.40

---

Target: caspase-1 (Homo sapiens, UniProt P29466, D381E)
Construct: His tag (N); made in house; host or cells: E. coli
Sequence (P29466 120-297 limits assumed): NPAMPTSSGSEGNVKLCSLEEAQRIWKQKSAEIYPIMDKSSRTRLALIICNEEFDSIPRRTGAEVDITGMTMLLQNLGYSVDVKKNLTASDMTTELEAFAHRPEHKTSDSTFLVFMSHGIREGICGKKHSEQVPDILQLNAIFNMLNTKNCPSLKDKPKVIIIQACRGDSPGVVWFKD
Sequence (P29466 317-404 D381E limits assumed): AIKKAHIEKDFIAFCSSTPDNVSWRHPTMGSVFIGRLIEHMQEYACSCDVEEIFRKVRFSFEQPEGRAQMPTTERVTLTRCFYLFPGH
Test: Caspase-1 progress curve assay
Type: biochemical
Details: D381E variant, substrate Ac-YVAD-AMC, 30° C.
Response field label takes label 1 when k2 caspase-1 is strictly below 10000 M⁻¹ s⁻¹ and label 0 in all other cases.

Recorded results for 4 molecules are shown here.
molecule="CC(C)[C@H](NC(=O)[C@H](CCC(=O)O)NC(=O)OCc1ccccc1)C(=O)NN(CC(=O)O)C(=O)[C@H]1O[C@@H]1C(=O)NCCc1ccccc1 [24h]" label="label 0"
molecule="CC(C)[C@H](NC(=O)[C@H](CCC(=O)O)NC(=O)[C@H](CC(=O)O)NC(=O)OCc1ccccc1)C(=O)NN(CC(=O)O)C(=O)[C@H]1O[C@@H]1C(=O)NCc1ccccc1 [25g]" label="label 0"
molecule="CC(NC(=O)[C@@H]1O[C@H]1C(=O)N(CC(=O)O)NC(=O)[C@H](C)NC(=O)[C@@H](NC(=O)CCc1ccccc1)C(C)C)C(=O)NCc1ccccc1 (stereo partly drawn) [23j (R,R)]" label="label 1"
molecule="CC(C)C[C@H](NC(=O)OCc1ccccc1)C(=O)N[C@@H](CCC(=O)O)C(=O)N[C@H](C(=O)NN(CC(=O)O)C(=O)[C@H]1O[C@@H]1C(=O)OCc1ccccc1)[C@@H](C)O [26d]" label="label 0"

API: the following record is the query input.
Ask | Please indicate whether the reported k2 caspase-1 of CC(NC(=O)[C@H]1O[C@@H]1C(=O)N(CC(=O)O)NC(=O)[C@H](C)NC(=O)[C@@H](NC(=O)CCc1ccccc1)C(C)C)C(=O)NCc1ccccc1 (stereo partly drawn) [23j (S,S)] is strictly below 10000 M⁻¹ s⁻¹.
Reply | label 0
